# TEST TARGET: Scytalone dehydratase (Magnaporthe oryzae (strain 70-15 / FGSC 8958) (Rice blast fungus)(Pyricularia oryzae), UniProt P56221)
# Sequence (P56221 whole entry): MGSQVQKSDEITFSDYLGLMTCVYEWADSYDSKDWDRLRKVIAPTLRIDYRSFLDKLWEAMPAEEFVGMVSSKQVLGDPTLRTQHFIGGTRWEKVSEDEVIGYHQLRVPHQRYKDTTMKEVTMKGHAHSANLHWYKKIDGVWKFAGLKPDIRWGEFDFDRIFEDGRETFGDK
# RUN DESCRIPTION: The compound was evaluated for its binding affinity against wild type scytalone dehydratase (SD)
MEASURE NAME: Ki (nM)
One number for each entry, in nM.

Give its Ki value. Item: `CC(C)NC(=O)c1cc(F)ccc1O` 450

The reported measurements were obtained from ChEMBL document CHEMBL1133488.
